- TARGET_OR_SYSTEM: human PPAR γ (Homo sapiens, UniProt P37231)
- Construct: PPARα: aa 167-C-terminus; PPARγ: aa 165-C-terminus; expressed in transfected cells; host or cells: HEK293
- Sequence (P37231 193-505): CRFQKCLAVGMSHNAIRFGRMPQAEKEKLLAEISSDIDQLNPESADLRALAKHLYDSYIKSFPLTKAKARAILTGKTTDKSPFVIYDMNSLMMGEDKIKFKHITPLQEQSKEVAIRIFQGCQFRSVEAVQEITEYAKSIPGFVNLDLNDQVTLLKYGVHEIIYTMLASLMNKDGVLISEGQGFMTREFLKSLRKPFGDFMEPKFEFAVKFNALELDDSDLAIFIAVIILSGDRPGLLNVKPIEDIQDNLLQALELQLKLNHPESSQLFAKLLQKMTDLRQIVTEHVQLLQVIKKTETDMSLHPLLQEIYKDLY
- PROCEDURE_SUMMARY: In vitro PPAR gamma transactivation assay (GAL4-DBD-PPAR-LBD luciferase reporter in HEK293 cells)
- Type: cell-based
- ASSAY_CONDITIONS: fold activation relative to maximum activation obtained with rosiglitazone (approx. […] fold corresponded to 100%)
ENDPOINT_NAME: In vitro activation PPAR γ % max
Please state the value followed by its unit.

Example entries and their recorded answers appear below.
- MOLECULE: "CCO[C@@H](Cc1ccc(OC/C=C(\\C)C#Cc2cc(Cl)cc(Cl)c2)cc1)C(=O)O"
  In vitro activation PPAR γ % max: "126%"
- MOLECULE: "CCO[C@@H](Cc1ccc(OC/C=C(\\C)C#Cc2cccc(C(F)(F)F)c2)cc1)C(=O)O"
  In vitro activation PPAR γ % max: "105%"
- MOLECULE: "CCOC(Cc1ccc(OCC=C(C)C#Cc2cccc3ccccc23)cc1)C(=O)O (stereo in doubt)"
  In vitro activation PPAR γ % max: "91%"

Let's switch to this molecule now.
Task item: Answer with reported In vitro activation PPAR γ % max of CCO[C@@H](Cc1ccc(OC/C=C/C#Cc2cc(Cl)cc(Cl)c2)cc1)C(=O)O
Reply: 112%
